# credit: patent US20250353864A1

target: EGFR L858R/T790M mutant (Homo sapiens (Human), UniProt P00533, L858R/T790M); test: HotSpot radiometric kinase assay, EGFR L858R/T790M mutant; conditions: 10 μM ATP
Sequence (P00533 25-1210 T790M/L858R): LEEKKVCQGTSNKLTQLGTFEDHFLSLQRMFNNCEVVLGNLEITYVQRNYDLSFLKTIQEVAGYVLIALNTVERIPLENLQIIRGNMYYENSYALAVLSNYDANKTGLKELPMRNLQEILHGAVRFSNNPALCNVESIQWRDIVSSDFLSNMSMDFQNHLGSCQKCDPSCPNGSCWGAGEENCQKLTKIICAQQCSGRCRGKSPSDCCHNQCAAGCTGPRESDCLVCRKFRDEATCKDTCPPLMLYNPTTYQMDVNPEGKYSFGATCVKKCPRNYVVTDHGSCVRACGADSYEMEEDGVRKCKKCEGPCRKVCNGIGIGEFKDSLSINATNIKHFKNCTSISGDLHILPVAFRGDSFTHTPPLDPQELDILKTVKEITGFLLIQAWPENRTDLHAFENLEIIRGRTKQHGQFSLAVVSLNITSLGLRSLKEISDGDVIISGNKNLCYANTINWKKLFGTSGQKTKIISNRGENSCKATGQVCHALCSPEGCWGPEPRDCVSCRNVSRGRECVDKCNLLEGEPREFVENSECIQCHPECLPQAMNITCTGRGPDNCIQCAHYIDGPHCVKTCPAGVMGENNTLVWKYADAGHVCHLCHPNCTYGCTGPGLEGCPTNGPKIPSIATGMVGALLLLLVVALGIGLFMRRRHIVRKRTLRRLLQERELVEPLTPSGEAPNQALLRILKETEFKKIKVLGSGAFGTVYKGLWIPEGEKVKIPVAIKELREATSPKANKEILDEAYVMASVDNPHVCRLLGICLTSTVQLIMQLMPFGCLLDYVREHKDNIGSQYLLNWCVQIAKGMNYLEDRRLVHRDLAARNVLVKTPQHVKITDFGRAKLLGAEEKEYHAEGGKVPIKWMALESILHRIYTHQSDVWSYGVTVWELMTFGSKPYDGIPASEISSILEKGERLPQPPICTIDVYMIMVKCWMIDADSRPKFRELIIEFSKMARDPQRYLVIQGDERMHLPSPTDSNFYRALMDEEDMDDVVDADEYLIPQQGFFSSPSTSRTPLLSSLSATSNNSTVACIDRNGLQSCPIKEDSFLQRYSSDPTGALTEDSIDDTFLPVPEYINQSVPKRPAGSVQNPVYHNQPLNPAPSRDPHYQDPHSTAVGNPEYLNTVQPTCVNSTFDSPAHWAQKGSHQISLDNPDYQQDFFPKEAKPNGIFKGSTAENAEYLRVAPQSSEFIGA
EXPERIMENTAL READOUT: pIC50
Notebook: values listed as pIC50 are -log10 of the concentration (mol/L).

{"columns": ["MOLECULE", "pIC50"],
 "data": [
  ["CC(C)Oc1nn(CCO)c2c1/C=C/c1n[nH]c3ccc(cc13)-c1cnn(C)c1OC(CF)CN(C)C2 (stereo not shown)", 9.24],
  ["CCOc1nn(CCO)c2c1/C=C/c1n[nH]c3ccc(cc13)-c1cnn(C)c1O[C@@H]1CCCN(C2)C1", 9.22],
  ["CCOc1nn([C@@H](C)CO)c2c1/C=C/c1n[nH]c3ccc(cc13)-c1cnn(C)c1O[C@@H](C)CN(C)C2", 9.35]
]}

### Prompt Quick one: pIC50 for CC(C)Oc1nn(CCO)c2c1/C=C/c1n[nH]c3ccc(cc13)-c1cnn(C)c1O[C@H](C)[C@H]1CCCN1C2 ?
### Response 8.59

### Prompt Quick one: pIC50 for Cc1nn([C@H]2CN(C)C[C@@H]2O)c2c1/C=C/c1n[nH]c3ccc(cc13)-c1cnn(C)c1CN(C)CCO2 (racemic) ?
### Response 8.45

### Prompt Quick one: pIC50 for Cc1nn([C@H]2CN(C)C[C@@H]2O)c2c1/C=C/c1n[nH]c3ccc(cc13)-c1cnn(C)c1OCCCO2 (racemic) ?
### Response 7.76

### Prompt Quick one: pIC50 for COCc1nn(CCO)c2c1/C=C/c1n[nH]c3ccc(cc13)-c1cnn(C)c1O[C@@H](C)CN(C)C2 ?
### Response 8.72
